test: activity coefficient (dimensionless); of the first substance listed, at infinite dilution; xn = mol fraction of the nth substance listed; details: 323.15 K; 100 kPa; Liquid; Chemical equilibration / Heterogeneous equilibration; x1 = 0
Short version: activity coefficient at least 70 is 1, less is 0.

| Compound | Group label |
| --- | --- |
| O [water] + COc1ccc(Br)cc1 | 0 |
| O [water] + Clc1ccccc1 | 1 |
| O [water] + COc1ccccc1 | 0 |
| O [water] + Cc1ccccc1 | 1 |
| O [water] + CCOc1ccccc1 | 0 |
| O [water] + FC(F)(F)c1ccccc1 | 1 |
| O [water] + Brc1ccccc1 | 1 |
